# Target Of Assay: Cytochrome P450 2D6 (Homo sapiens) (UniProt P10635)
# Sequence (P10635 whole entry, looked up): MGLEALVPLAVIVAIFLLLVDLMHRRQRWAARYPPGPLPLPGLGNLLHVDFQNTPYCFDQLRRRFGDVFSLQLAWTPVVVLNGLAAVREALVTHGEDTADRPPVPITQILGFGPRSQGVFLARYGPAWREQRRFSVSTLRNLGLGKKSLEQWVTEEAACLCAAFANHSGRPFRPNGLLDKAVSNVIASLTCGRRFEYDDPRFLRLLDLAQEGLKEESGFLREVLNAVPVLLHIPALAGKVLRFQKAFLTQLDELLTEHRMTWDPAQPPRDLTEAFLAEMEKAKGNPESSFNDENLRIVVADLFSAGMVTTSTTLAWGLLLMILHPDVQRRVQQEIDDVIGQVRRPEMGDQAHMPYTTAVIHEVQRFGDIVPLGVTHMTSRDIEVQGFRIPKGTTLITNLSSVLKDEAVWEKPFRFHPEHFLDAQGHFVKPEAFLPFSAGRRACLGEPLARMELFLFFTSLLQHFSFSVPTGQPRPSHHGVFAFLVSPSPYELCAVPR
# Assay Text: Cytochrome panel assay with activity outcomes
# Measurement Setup: recombinant CYP, pro-luciferin dealkylation, luminescence, p450-cyp2d6; series mostly up to 57.1 µM
About 2,600 (16%) of roughly 16,000 compounds were called active. Not shown: some 20% with an inconclusive outcome. These entries were drawn from the full list.
Reported Property: AC50

Some compounds with known AC50 results, for comparison:
>  <Compound>
CCc1nnc(NC(=O)CSc2nc3cc4c(cc3cc2C)OCCO4)s1

>  <Reported Property>
AC50

>  <Value Reported>
inactive

$$$$
>  <Compound>
CCn1ncc(/C=C/C(=O)NCc2cn(C)nc2C)c1C

>  <Reported Property>
AC50

>  <Value Reported>
inactive

$$$$
>  <Compound>
Cc1c(Br)c([N+](=O)[O-])nn1CC(=O)NCc1ccccn1

>  <Reported Property>
AC50

>  <Value Reported>
inactive

$$$$
>  <Compound>
Cc1ccc(Oc2nnc(-c3ccccc3)cc2C#N)cc1

>  <Reported Property>
AC50

>  <Value Reported>
inactive

$$$$

Request: What value of AC50 on Cytochrome P450 2D6 (Homo sapiens) (UniProt P10635) does `O=C(O)CCCCCNC(=O)c1ccncc1` have?
Response: inactive

Request: Same again, this time with `CCC(CC)C(=O)c1c[nH]c(C(=O)NCCc2ccccn2)c1`
Response: inactive

Request: Same again, this time with `O=c1c(-c2cccc(F)c2)nc2cncnc2n1-c1ccccc1`
Response: inactive

* * *

# Target Of Assay: Cytochrome P450 2D6 (Homo sapiens) (UniProt P10635)
# Assay Text: Cytochrome panel assay with activity outcomes
# Measurement Setup: recombinant CYP, pro-luciferin dealkylation, luminescence, p450-cyp2d6; series mostly up to 57.1 µM
Out of some 16,000 compounds screened, about 2,600 (16%) were called active. Inconclusive results (about 20%) are left out. Calls come from the whole dose curve; as a rule, active = well fitted curve in the direction sought with a large enough effect; inconclusive = small, poorly fitted or top-dose-only effect, or effect the other way; inactive = no such curve, though single readings can be large or run the other way. Not all results are given here.
Hi! Could you answer with just one of these? TRUE (active), FALSE (inactive)

>  <Compound>
Cc1nc2cncnc2n(Cc2ccccc2)c1=O

>  <Target Of Assay>
Cytochrome P450 2D6 (Homo sapiens) (UniProt P10635)

>  <Label Value>
FALSE

$$$$
>  <Compound>
Cc1nn(Cc2ccc(Cl)cc2)c(C)c1NC(=O)Cn1nc([N+](=O)[O-])c(Cl)c1C

>  <Target Of Assay>
Cytochrome P450 2D6 (Homo sapiens) (UniProt P10635)

>  <Label Value>
FALSE

$$$$
>  <Compound>
Cc1ccc([C@@H](O)c2cnc(C)n2Cc2ccccc2)cc1

>  <Target Of Assay>
Cytochrome P450 2D6 (Homo sapiens) (UniProt P10635)

>  <Label Value>
TRUE

$$$$

Request: Recorded call for `CCNc1ncc2nc(-c3ccccc3)c(=O)n(CCOC)c2n1` ?
Response: TRUE

Request: Same again, this time with `Cc1c(Cl)cnc(NC(=O)COC(=O)CCS(=O)(=O)c2ccccc2)c1Cl`
Response: FALSE

Request: Same again, this time with `CCNc1ncc2nc(C)c(=O)n(CCc3ccccc3)c2n1`
Response: FALSE

Request: Same again, this time with `O=c1cnc2cnc(N3CCNCC3)nc2n1Cc1ccc(F)cc1`
Response: FALSE

Request: Same again, this time with `CCNc1ncc2nc(-c3ccccc3)c(=O)n(CCc3ccccc3)c2n1`
Response: TRUE

Request: Same again, this time with CC(C)CC(C(=O)OCC(=O)Nc1ncc(Cl)cc1Cl)N1C(=O)c2ccccc2C1=O (centres undefined)
Response: TRUE
